This collection of values is drawn from patent EP1200406B1.

- Subject of test: human 5-HT1A-serotoninergic receptor (Homo sapiens)
- Construct: expressed in transfected cells; host or cells: HeLa cells (membranes)
- Assay method text: Radioligand binding ([3H]8-OH-DPAT) on membranes of HeLa cells expressing cloned 5-HT1A receptor
- Stated conditions: human cloned receptor, HeLa cell membranes, 1.2 nM [3H]8-OH-DPAT; read-out: Affinity (Ki) 5-HT1A
pKi: −log10 of the molar value.
Given measured pKi, output label 1 if it is greater than or equal to 7 and label 0 if not.

Check if pKi >= 7 (inclusive). Item: "N#Cc1ccc(Cl)cc1N1CCN(CCN2C(=O)CC3(CCCC3)CC2=O)CC1"
label 1

Does the reported pKi for "O=C1CC2(CCCC2)CCN1CCN1CCN(c2cc(Cl)ccc2Cl)CC1" fall at or above the 7 mark?
label 1

pKi >= 7 for "O=C1CCCC(=O)N1CCN1CCN(c2cc(Cl)ccc2Cl)CC1" ?
label 0

Hello, I need to know if "O=C1CC2(CCCC2)CC(=O)N1CCN1CCC(c2cc(Cl)ccc2Cl)CC1" has measured pKi not below 7. Thanks!
label 0

Identify whether the reported pKi of the following compound is 7 or greater: CC(CN1CCN(c2cc(Cl)ccc2Cl)CC1)N1C(=O)CC2(CCCC2)CC1=O (stereo not drawn)
label 0

Tell me whether pKi is at least 7 here: "O=C1CC2(CCCC2)CC(=O)N1CCN1CCN(c2cc(F)ccc2Cl)CC1"
label 1

Check this compound for pKi at or above 7: COc1ccccc1N1CCN(CCN2C(=O)CC3(CCCC3)CC2=O)CC1 [BMY-7378, reference compound]
label 1

====

- Subject of test: human recombinant α1d adrenoceptor (Homo sapiens, UniProt P25100)
- Construct: expressed in transfected cells; host or cells: CHO cells (membranes)
- Sequence (P25100 whole entry): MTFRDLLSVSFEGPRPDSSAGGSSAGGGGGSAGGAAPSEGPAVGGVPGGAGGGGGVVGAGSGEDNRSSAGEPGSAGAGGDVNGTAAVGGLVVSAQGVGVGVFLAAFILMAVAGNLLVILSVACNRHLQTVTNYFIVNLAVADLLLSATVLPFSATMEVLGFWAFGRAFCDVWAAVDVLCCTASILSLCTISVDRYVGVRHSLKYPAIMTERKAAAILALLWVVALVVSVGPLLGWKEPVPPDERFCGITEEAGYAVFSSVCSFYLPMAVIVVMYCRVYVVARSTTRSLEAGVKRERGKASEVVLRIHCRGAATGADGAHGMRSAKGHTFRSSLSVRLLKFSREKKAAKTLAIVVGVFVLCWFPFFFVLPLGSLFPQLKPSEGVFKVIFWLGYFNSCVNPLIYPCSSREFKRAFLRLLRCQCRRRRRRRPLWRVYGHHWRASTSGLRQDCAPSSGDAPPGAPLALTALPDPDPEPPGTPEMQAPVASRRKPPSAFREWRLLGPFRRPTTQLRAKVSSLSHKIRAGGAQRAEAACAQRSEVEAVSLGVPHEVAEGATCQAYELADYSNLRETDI
- Assay method text: Radioligand binding ([3H]prazosin) on membranes of CHO cells expressing cloned α1d adrenoceptor
- Stated conditions: human cloned receptor, CHO cell membranes, 0.2 nM [3H]prazosin; read-out: Affinity (Ki) α1d
Metric: pKi
// field semantics: pKi = negative decimal log of concentration (mol/L)

Entry "O=C1CC2(CCCC2)CC(=O)N1CCN1CCN(c2cc(F)ccc2Cl)CC1" : reported pKi = ?
9.74

Name the reported pKi value associated with the compound "O=C1CC2(CCCC2)CCN1CCN1CCN(c2cc(F)c(F)cc2F)CC1"
9.51

Endpoint output: pKi of "O=C1CC2(CCCC2)CC(=O)N1CCN1CCN(c2cc(I)ccc2Cl)CC1" . Value?
7.82

Form field: reported pKi of "O=C1CC2(CCCC2)CC(=O)N1CCN1CCN(c2cc(Br)ccc2Br)CC1"
8.43

Which pKi value belongs to "CN(CCN1C(=O)CC2(CCCC2)CC1=O)CCN(C)c1cc(Cl)ccc1Cl" ?
7.79

Dear colleague, I am looking for the recorded pKi of the following compound: "CCC1(C)CC(=O)N(CCN2CCN(c3cc(Cl)ccc3Cl)CC2)C(=O)C1"
8.91

pKi lookup needed for "O=C1CC2(CCCC2)CC(=O)N1CCN1CCN(c2cc(C(F)(F)F)ccc2F)CC1" , thanks.
8.12

Quick one: pKi of "O=C1CC2(CCC2)CC(=O)N1CCN1CCN(c2cc(Cl)ccc2Cl)CC1" ?
8.58

# input compound: CC(CN1CCN(c2cc(Cl)ccc2Cl)CC1)N1C(=O)CC2(CCCC2)CC1=O (stereo not drawn) ; wanted: its pKi
9.39

====

- Subject of test: human recombinant α1a adrenoceptor (Homo sapiens)
- Construct: expressed in transfected cells; host or cells: CHO cells (membranes)
- Sequence (P35348 whole entry): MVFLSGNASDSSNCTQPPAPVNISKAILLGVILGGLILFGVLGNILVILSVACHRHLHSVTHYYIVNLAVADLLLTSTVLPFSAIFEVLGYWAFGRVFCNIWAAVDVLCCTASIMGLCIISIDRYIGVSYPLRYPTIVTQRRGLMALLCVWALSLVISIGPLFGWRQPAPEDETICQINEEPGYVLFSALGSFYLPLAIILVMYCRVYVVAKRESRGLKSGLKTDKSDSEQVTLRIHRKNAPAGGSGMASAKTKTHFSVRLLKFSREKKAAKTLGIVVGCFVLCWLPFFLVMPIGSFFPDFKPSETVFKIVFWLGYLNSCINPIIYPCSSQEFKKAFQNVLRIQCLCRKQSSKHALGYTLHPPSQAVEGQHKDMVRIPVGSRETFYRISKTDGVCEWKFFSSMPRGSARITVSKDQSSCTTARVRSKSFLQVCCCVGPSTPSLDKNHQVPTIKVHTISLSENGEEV
- Assay method text: Radioligand binding ([3H]prazosin) on membranes of CHO cells expressing cloned α1a adrenoceptor
- Stated conditions: human cloned receptor, CHO cell membranes, 0.2 nM [3H]prazosin; read-out: Affinity (Ki) α1a
Metric: pKi
Recall that pKi is obtained by taking minus log10 of the concentration measured in molar.

Which pKi is listed for "CCC1(C)CC(=O)N(CCN2CCN(c3cc(Cl)ccc3Cl)CC2)C(=O)C1" ?
7.22

Give the measured pKi of "O=C1CC2(CCC2)CC(=O)N1CCN1CCN(c2cc(Cl)ccc2Cl)CC1" .
6.92

Any idea what pKi was measured for "Cc1ccc(Cl)c(N2CCN(CCN3C(=O)CC4(CCCC4)CC3=O)CC2)c1" ?
6.90

If you can, please state the reported pKi value of "O=C1CC2(CCCC2)CCN1CCN1CCN(c2cc(F)c(F)cc2F)CC1" .
6.15

Quick one: pKi for "O=C1CC2(CCCC2)CC(=O)N1CCN1CCN(c2cc(I)ccc2Cl)CC1" ?
6.32

Bench note: what pKi did CC(CN1CCN(c2cc(Cl)ccc2Cl)CC1)N1C(=O)CC2(CCCC2)CC1=O (stereo not drawn) show?
6.73

Any idea what its pKi is? The molecule is "CN(CCN1C(=O)CC2(CCCC2)CC1=O)CCN(C)c1cc(Cl)ccc1Cl"
6.10

Data request, read-out pKi, for "N#Cc1ccc(Cl)cc1N1CCN(CCN2C(=O)CC3(CCCC3)CC2=O)CC1"
6.30

Would you mind telling me what pKi value was observed for "O=C1CC2(CCCC2)CC(=O)N1CCN1CCC(c2cc(Cl)ccc2Cl)CC1" ?
6.93

Which value of pKi has been reported for "Cc1ccc(C)c(N2CCN(CCN3C(=O)CC4(CCCC4)CC3=O)CC2)c1" in the records?
6.92

====

- Subject of test: human 5-HT1A-serotoninergic receptor (Homo sapiens, UniProt P08908)
- Construct: expressed in transfected cells; host or cells: HeLa cells (membranes)
- Sequence (P08908 1-422): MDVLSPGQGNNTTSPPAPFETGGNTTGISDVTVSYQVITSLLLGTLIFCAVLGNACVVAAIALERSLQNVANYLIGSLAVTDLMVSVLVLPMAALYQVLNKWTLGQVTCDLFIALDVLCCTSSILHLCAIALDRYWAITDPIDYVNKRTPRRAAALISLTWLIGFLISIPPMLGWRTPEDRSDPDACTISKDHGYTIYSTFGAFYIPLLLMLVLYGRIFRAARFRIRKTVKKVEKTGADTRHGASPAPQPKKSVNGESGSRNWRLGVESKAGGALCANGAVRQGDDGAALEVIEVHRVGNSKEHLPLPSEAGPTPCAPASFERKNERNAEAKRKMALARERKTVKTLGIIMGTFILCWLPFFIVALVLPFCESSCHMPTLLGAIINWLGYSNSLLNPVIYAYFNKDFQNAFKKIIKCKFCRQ
- Assay method text: Radioligand binding ([3H]8-OH-DPAT) on membranes of HeLa cells expressing cloned 5-HT1A receptor
- Stated conditions: human cloned receptor, HeLa cell membranes, 1.2 nM [3H]8-OH-DPAT; read-out: Affinity (Ki) 5-HT1A
Metric: pKi
Please note pKi is a logarithmic value: minus log10 of concentration in mol/L. Answer with that number alone.

Recorded pKi for "Cc1ccc(Cl)c(N2CCN(CCN3C(=O)CC4(CCCC4)CC3=O)CC2)c1" with human 5-HT1A-serotoninergic receptor (Homo sapiens, UniProt P08908), please?
7.16

# get_value(readout= pKi, system= human 5-HT1A-serotoninergic receptor (Homo sapiens, UniProt P08908)) for "CCC1(C)CC(=O)N(CCN2CCN(c3cc(Cl)ccc3Cl)CC2)C(=O)C1"
6.98

Any idea what pKi came out for "O=C1CC2(CCCC2)CC(=O)N1CCN1CCN(c2cc(Cl)ccc2Cl)CC1" on human 5-HT1A-serotoninergic receptor (Homo sapiens, UniProt P08908)?
7.44

Form field - read-out: pKi; system: human 5-HT1A-serotoninergic receptor (Homo sapiens, UniProt P08908); submitted item: "Cc1ccc(F)c(N2CCN(CCN3C(=O)CC4(CCCC4)CC3=O)CC2)c1"
7.28

====

- Subject of test: human recombinant α1b adrenoceptor (Homo sapiens)
- Sequence (P35368 whole entry): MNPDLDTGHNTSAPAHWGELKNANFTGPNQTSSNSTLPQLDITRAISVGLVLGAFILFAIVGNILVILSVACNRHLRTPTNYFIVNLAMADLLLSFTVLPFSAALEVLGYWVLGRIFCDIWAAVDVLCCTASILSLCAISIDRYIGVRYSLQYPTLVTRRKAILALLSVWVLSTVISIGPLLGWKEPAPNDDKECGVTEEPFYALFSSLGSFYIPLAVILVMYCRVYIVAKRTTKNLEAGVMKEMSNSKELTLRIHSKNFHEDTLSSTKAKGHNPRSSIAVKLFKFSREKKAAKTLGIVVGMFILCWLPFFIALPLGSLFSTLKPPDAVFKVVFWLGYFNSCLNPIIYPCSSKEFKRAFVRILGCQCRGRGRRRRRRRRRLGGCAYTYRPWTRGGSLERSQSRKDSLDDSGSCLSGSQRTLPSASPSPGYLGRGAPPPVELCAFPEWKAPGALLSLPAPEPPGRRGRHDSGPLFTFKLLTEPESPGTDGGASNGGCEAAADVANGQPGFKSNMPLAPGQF
- Assay method text: Radioligand binding ([3H]prazosin) on membranes of CHO cells expressing cloned α1b adrenoceptor
- Stated conditions: human cloned receptor, CHO cell membranes, 0.2 nM [3H]prazosin; read-out: Affinity (Ki) α1b
Metric: Ki (nM)
Numbers only; they are read as nM.

Sample "O=C1CCC(=O)N1CCN1CCN(c2cc(Cl)ccc2Cl)CC1" — what was its Ki?
86.4

What measured Ki goes with CC(CN1CCN(c2cc(Cl)ccc2Cl)CC1)N1C(=O)CC2(CCCC2)CC1=O (stereo not shown) ?
13.1

What does the data say about its Ki? Entry: "O=C1CC2(CCCC2)CC(=O)N1CCN1CCC(c2cc(Cl)ccc2Cl)CC1"
37.6

Requested field: Ki. Item: "O=C1CC2(CCCCC2)CC(=O)N1CCN1CCN(c2cc(Cl)ccc2Cl)CC1"
52.9

====

- Subject of test: human recombinant α1d adrenoceptor (Homo sapiens)
- Construct: expressed in transfected cells; host or cells: CHO cells (membranes)
- Assay method text: Radioligand binding ([3H]prazosin) on membranes of CHO cells expressing cloned α1d adrenoceptor
- Stated conditions: human cloned receptor, CHO cell membranes, 0.2 nM [3H]prazosin; read-out: Affinity (Ki) α1d
Would you kindly list Ki for each of these molecules?
State just the number; it will be interpreted in nM.

# get_value(readout='Ki', item= "O=C1CC2(CCCC2)C(=O)N1CCN1CCN(c2cc(Cl)ccc2Cl)CC1" )
3.11

Data request, read-out Ki, for "O=C1CCC(=O)N1CCN1CCN(c2cc(Cl)ccc2Cl)CC1"
7.78

What value of Ki has been reported for the following molecule? "O=C1CC2(CCCCCC2)CC(=O)N1CCN1CCN(c2cc(Cl)ccc2Cl)CC1"
0.96

Endpoint output: Ki of "Cc1ccc(C)c(N2CCN(CCN3C(=O)CC4(CCCC4)CC3=O)CC2)c1" . Value?
10.1
